- procedure text: Acute toxicity in oral application to mice
- condition notes: mouse, in vivo, 5 mg/kg, ICR male mice, after seven days
test readout: mortality at 168 h (%)
Supply the numeric figure in %, leaving out any unit text.

Asked: Quote mortality at 168 h reported for CCC(C)SP(=O)(NC)OC (stereo not shown) [A, reference compound] please.
Given back: 100

====

- procedure text: Acute toxicity in oral application to mice
- condition notes: mouse, in vivo, 30 mg/kg, ICR male mice, after seven days
test readout: mortality at 168 h (%)
Supply the numeric figure in %, leaving out any unit text.

Asked: Quote mortality at 168 h reported for CCOP(=O)(SC(C)CC)N(CC#N)C(=O)OC (centres unmarked) please.
Given back: 0

Now let's try a different one.
Asked: Quote mortality at 168 h reported for CCOP(=O)(SC(C)CC)N(CCC#N)C(=O)SC (centres unmarked) please.
Given back: 0

Sourced from patent US5449667A
